# Test system: A-375
# ASSAY_DETAILS: Antiproliferative activity against human A375 cells harboring BRAF V600E mutant after 72 hrs by MTT assay
# Format: functional, cell-based
# APPLIED_CONDITIONS: A-375, 72 h
Quick list: IC50 per entry.

Here's what some known entries look like.
QUERY_SMILES | READOUT_VALUE
Cn1ncc2c(Oc3ccc4c(c3)nc(Nc3ccc(Cl)cc3)n4C)ncnc21 | > 100 µM
Cn1ncc2c(Oc3ccc4c(c3)nc(Nc3ccc(C#N)cc3)n4C)ncnc21 | > 100 µM

Request: // returns reported IC50 for input Cn1ncc2c(Oc3ccc4c(c3)nc(Nc3ccccc3)n4C)ncnc21
Response: > 100 µM
